- measurement.target: T1, CD32a-R131 (FcgRIIa-R131) (Homo sapiens, UniProt P12318, H167R)
- T1 sequence (P12318 34-217 H167R limits assumed): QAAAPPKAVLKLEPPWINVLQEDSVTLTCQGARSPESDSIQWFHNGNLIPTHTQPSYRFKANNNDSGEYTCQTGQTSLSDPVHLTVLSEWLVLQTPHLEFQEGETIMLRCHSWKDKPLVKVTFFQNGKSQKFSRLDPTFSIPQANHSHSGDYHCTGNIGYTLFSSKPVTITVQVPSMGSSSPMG
- procedure.details: SPR binding to FcgR-his: CD32a-R131
- assay.conditions: 1 μM antibody, anti-his Fab captured FcgR-his
- Protocol: The binding of antibodies to Fc gamma receptors (FcγRs or FcgRs) was studied using biosensor technologies including Biacore surface plasmon resonance (SPR) and Fortebio Biolayer Interferometry (BLI). […] Various his-tagged FcgRs (7 ug/ml) were captured via the C-terminal his-tag using a contact time of 30 s at 10 ul/min, and the binding of 1.0 μM antibody was evaluated in a running buffer of 10 mM NaPO4, 130 mM NaCl, 0.05% p20 (PBS-T) pH 7.1. […]
measurement.label: % Rmax, binding to hCD32a-R131 (%)

1. mAb12-IgG2.5 (protein, left off: another chain or arm of the molecule) constant: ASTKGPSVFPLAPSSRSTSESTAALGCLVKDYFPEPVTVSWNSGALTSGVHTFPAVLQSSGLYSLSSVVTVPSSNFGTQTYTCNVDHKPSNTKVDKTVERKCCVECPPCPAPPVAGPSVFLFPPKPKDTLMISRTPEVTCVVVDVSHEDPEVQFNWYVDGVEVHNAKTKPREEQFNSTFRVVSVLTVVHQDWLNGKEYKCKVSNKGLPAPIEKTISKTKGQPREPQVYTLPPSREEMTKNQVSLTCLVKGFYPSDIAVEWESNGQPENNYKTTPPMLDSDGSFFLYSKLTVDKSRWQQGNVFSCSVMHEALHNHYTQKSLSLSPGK = 6
2. mAb4-IgG2.5 (protein, left off: another chain or arm of the molecule) constant: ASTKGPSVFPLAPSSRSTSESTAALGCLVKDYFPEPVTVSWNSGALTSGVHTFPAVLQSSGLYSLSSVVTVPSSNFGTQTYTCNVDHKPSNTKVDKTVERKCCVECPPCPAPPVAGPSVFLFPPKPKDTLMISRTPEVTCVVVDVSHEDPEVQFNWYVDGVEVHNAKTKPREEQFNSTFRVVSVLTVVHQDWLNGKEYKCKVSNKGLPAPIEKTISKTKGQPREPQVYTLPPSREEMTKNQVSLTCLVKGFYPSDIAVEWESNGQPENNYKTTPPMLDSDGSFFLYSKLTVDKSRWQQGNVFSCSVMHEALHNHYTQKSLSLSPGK = 8
